# targetOrSystem: SHP2-C SH2;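 also: peptide library displayed on the E. coli surface as eCPX fusions, selected cells deep-sequenced, score is each peptide's frequency after selection divided by its frequency in the input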
# methodSummary: SH2 binding enrichment of the phosphorylated peptide, bacterial display (enrichment ratio); higher = better substrate or ligand; peptides without Tyr show the background
readoutType: SH2 binding enrichment

biopolymersequence="VFSIDYFRVGG [NTRK2_Y706_T704I_YF]" experimentalvalue=2.13
biopolymersequence="FLGRDYLETLM [DUS3L_Y610_YF]" experimentalvalue=0.96
biopolymersequence="YGAHNHHPLPV [OAT_Y55_Y55H]" experimentalvalue=1.05
biopolymersequence="KLGDVYVNVAF [PGK1_Y161_D164V]" experimentalvalue=0.845
biopolymersequence="RLLVVYHWTQR [HBD_Y36_P37H]" experimentalvalue=1.27
biopolymersequence="LIQRNYKLAAQ [ALPK2_Y1975]" experimentalvalue=0.649
biopolymersequence="GEHSIYSTVNN [CD55_Y266_C267S]" experimentalvalue=1.59
biopolymersequence="PLFSKYWPNHI [GREB1L_Y1560_R1558S_YF]" experimentalvalue=0.736
biopolymersequence="NAPNSYGRRPI [CDKN2A_Y44]" experimentalvalue=0.799
biopolymersequence="ENFSEYQEIAV [HEMGN_Y150]" experimentalvalue=0.663
biopolymersequence="AMGAVYQAAAL [HYOU1_Y421]" experimentalvalue=0.503
biopolymersequence="YETSHYPASPD [CTNND2_Y1217]" experimentalvalue=0.723
biopolymersequence="VSTAVYKRFAS [BEST1_Y148_P152A]" experimentalvalue=0.681
biopolymersequence="RLQEDYDHSYY [ESD_Y258_G257D]" experimentalvalue=0.741
biopolymersequence="TNGFTYGSSHQ [MANEA_Y331]" experimentalvalue=0.493
biopolymersequence="TTGLIYIGSHD [AASDH_Y870]" experimentalvalue=0.69
biopolymersequence="LEDDVYRKTCT [XPA_Y257_M256V]" experimentalvalue=0.291
biopolymersequence="TRFDEYLEVTK [MAP1A_Y2217_H2214Y_YF]" experimentalvalue=0.78
biopolymersequence="TVQVAYFTMMM [SPATA17_Y83_YF]" experimentalvalue=0.704
biopolymersequence="FQQLFYLLQTN [IQGAP2_Y890_YF]" experimentalvalue=1.47
biopolymersequence="KSSDVYVSFDC [SORL1_Y136_Y141C_YF]" experimentalvalue=0.782
biopolymersequence="LSDGPYSSPFE [EPOR_Y485_N487S_YF]" experimentalvalue=0.473
biopolymersequence="PAIYTYDEYKK [COL8A2_Y648_T645I]" experimentalvalue=0.513
biopolymersequence="IALSKYGRVKW [FGF6_Y186_R191W]" experimentalvalue=1.89
biopolymersequence="GPGGDYAAMGA [ERBB3_Y1276]" experimentalvalue=0.863
biopolymersequence="EFISESCGEII [EZH2_Y641_Y641S]" experimentalvalue=0.716
biopolymersequence="ISISPYPAILH [IFT80_Y588_T586S]" experimentalvalue=0.45
biopolymersequence="EICTQYEAMAS [GFAP_Y242_R239C]" experimentalvalue=0.804
biopolymersequence="SSYPDYLAAVD [GLB1_Y154_D151Y]" experimentalvalue=0.473

* * *

Entries and their phosphorylation enrichment values follow.
# targetOrSystem: FGFR3 (UniProt P22607)
# Sequence (P22607 whole entry, looked up): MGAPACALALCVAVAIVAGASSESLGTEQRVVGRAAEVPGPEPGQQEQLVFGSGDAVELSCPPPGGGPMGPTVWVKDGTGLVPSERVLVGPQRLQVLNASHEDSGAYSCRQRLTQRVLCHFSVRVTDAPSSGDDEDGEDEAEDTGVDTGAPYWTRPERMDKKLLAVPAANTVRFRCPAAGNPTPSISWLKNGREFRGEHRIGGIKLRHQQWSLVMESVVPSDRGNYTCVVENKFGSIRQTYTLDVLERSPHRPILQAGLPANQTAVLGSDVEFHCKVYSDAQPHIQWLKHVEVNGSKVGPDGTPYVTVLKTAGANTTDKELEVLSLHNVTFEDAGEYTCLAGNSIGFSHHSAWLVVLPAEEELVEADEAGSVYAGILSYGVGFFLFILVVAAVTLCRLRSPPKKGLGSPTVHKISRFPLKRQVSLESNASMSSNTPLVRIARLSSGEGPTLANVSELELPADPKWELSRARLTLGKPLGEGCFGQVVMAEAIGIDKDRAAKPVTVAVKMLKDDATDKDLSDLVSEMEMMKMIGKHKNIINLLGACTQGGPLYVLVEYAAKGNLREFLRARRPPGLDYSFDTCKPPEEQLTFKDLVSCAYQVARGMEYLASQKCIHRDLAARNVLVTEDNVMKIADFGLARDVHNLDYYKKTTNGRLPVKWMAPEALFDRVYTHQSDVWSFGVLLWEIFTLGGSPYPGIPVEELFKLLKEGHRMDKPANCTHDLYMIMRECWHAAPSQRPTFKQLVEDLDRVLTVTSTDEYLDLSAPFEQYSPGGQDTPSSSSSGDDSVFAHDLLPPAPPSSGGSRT
# methodSummary: phosphorylation enrichment, bacterial display (enrichment ratio); higher = better substrate or ligand; peptides without Tyr show the background
readoutType: phosphorylation enrichment

biopolymersequence="KLFFHYNPKLC [INSR_Y457]" experimentalvalue=0.777
biopolymersequence="ADFFDYGRGLS [KHDRBS3_Y304_H306R_YF]" experimentalvalue=0.702
biopolymersequence="LFLALYTGLVR [PIGB_Y402_H407R]" experimentalvalue=0.747
biopolymersequence="LRWREYQRQDF [PRKRIP1_Y90_R87W_YF]" experimentalvalue=2.67
biopolymersequence="IDDNEYAYLKA [HNF4A_Y286]" experimentalvalue=0.868
biopolymersequence="GREFIYVDPMQ [PDGFRA_Y574_H570R_YF]" experimentalvalue=4.31
biopolymersequence="DDPRTYQKFGF [OAS1_Y362_R361T_YF]" experimentalvalue=0.544
biopolymersequence="PEACDYGLGGG [GSTO1_Y239]" experimentalvalue=0.816
biopolymersequence="TSSSSYFDEPV [ARFGAP3_Y356]" experimentalvalue=0.749
biopolymersequence="GKSDPYHATSG [GJA1_Y247]" experimentalvalue=0.402
biopolymersequence="EKLQQYLAPGM [EPHB3_Y600_I601L]" experimentalvalue=0.493
biopolymersequence="EKSREYDRLYE [PIK3R1_Y463]" experimentalvalue=0.706
biopolymersequence="GFQPDYGQPAG [SYP_Y278_YF]" experimentalvalue=0.483
biopolymersequence="IFCIQYNICAF [MYH4_Y820_R823C]" experimentalvalue=0.807
biopolymersequence="QRKRAYVEIEF [MAK16_Y282_YF]" experimentalvalue=0.785
biopolymersequence="STTIHYNYMCN [TP53_Y234_C229S]" experimentalvalue=0.809
biopolymersequence="LYDPDYMKVIL [CYP4A22_Y104]" experimentalvalue=1.07
biopolymersequence="NTYEKYWPFYQ [GATM_Y103]" experimentalvalue=1.89
biopolymersequence="RAYSWYQHQRA [NDST1_Y714]" experimentalvalue=0.792
biopolymersequence="RFLERYIFNRQ [HLA-DPB1_Y57_E62Q_YF]" experimentalvalue=0.642
biopolymersequence="APEVIYATPGA [ABLtide_2014]" experimentalvalue=0.868
biopolymersequence="PLFSKYWPNHI [GREB1L_Y1560_R1558S_YF]" experimentalvalue=0.724
biopolymersequence="NDKLCYEVSSP [CDH13_Y66_R65C]" experimentalvalue=0.876
biopolymersequence="PAKPRYRARQR [KCNJ11_Y26_E23K]" experimentalvalue=0.642
biopolymersequence="SVTCTYSPDLN [TP53_Y126_A129D]" experimentalvalue=0.985
biopolymersequence="FIPSNYVAEDR [FRK_Y104_YF]" experimentalvalue=0.502
biopolymersequence="FTGDIYSSSNL [LZTR1_Y141_N143S_YF]" experimentalvalue=0.588
biopolymersequence="RPSRQYATRDV [SCAMP3_Y35_L38R]" experimentalvalue=0.352
biopolymersequence="SSYPDYLAAVD [GLB1_Y154_D151Y]" experimentalvalue=0.746
biopolymersequence="KFLVGYEMLAQ [GALT_Y339_M336L]" experimentalvalue=0.661
biopolymersequence="QDIMAYRGREV [BCL6_Y157]" experimentalvalue=0.717
biopolymersequence="TGEKPYECVQC [ZNF24_Y335]" experimentalvalue=0.531
biopolymersequence="GLAKEYTDPET [CSNK1G2_Y195_I196T]" experimentalvalue=0.92
biopolymersequence="VSNFNYFFHRE [KCNA1_Y413_YF]" experimentalvalue=0.885
biopolymersequence="RLGNQHVNVMN [SLC3A1_Y461_Y461H]" experimentalvalue=0.691
biopolymersequence="VKKKLDEEIDQ [CYP17A1_Y329_Y329D]" experimentalvalue=0.579
biopolymersequence="SVTCTYSPALS [TP53_Y126_N131S]" experimentalvalue=0.697
biopolymersequence="KLPFLYDDPFS [GPX2_Y127_P126L_YF]" experimentalvalue=0.62
biopolymersequence="FLAVGYHKTHI [IDS_Y225_P228T]" experimentalvalue=0.649
biopolymersequence="EASGIYVKSVI [PATJ_Y396_I400V]" experimentalvalue=0.741
biopolymersequence="ASMAKYFASGI [ACADSB_Y372_E376G_YF]" experimentalvalue=0.441
biopolymersequence="RFLERDIYNRE [HLA-DPB1_Y57_Y57D]" experimentalvalue=2.92
biopolymersequence="PRLLRYLQLDF [ASB10_Y457]" experimentalvalue=0.873
biopolymersequence="NKEPRYQEDPP [TJP2_Y479]" experimentalvalue=0.823
biopolymersequence="LSDVIYVILRK [PMP22_Y153_G150D]" experimentalvalue=0.684
biopolymersequence="FTFDPYSEEEP [IL2RB_Y387_D391E_YF]" experimentalvalue=0.811
biopolymersequence="ETKTPYTVILI [SBDS_Y128_R126T]" experimentalvalue=0.794
biopolymersequence="VAFLFYKSIGP [ADGRL4_Y302_V300L_YF]" experimentalvalue=0.837
biopolymersequence="EEKKKYFDAKI [CASP5_Y103_T106A_YF]" experimentalvalue=0.464
biopolymersequence="LEHCQYVTEKV [ALDOB_Y204]" experimentalvalue=1.91
biopolymersequence="GSRGKYSSGFR [ATM_Y332]" experimentalvalue=0.453
biopolymersequence="ELPEKYSQNIF [PKP2_Y626_YF]" experimentalvalue=0.659
biopolymersequence="IPGMEYLVSII [TNC_Y1775_V1773M]" experimentalvalue=0.889
biopolymersequence="PGGKIYISPLK [RB1_Y805_N803K]" experimentalvalue=0.583
biopolymersequence="CSSPTYRDCLQ [LARGE2_Y682_R677C]" experimentalvalue=0.738
biopolymersequence="QDDTVYMGKVT [DCTN1_Y1244]" experimentalvalue=1.17
biopolymersequence="KRLAVYQAGAR [APOE_Y180]" experimentalvalue=0.365
